Molecular target: polyclonal human IgG
Assay: Adsorption isotherm of peptoid affinity resins against polyclonal human IgG
Assay type: binding
Settings: Table 2; peptoid ligand conjugated to chromatographic resin, IgG in PBS, hyperbola fit of isotherm; Kd given in molar; read-out: Kd x 10^−6
*1 amine or outer side, *2 acyl side, *3 side chain or, on linkers, in order; H or OH if unused. Where a SMILES comes first, the peptide text is derived from it. [ ]: non-standard residue; d: D form. Gly(N(CH2)2(3-indolyl)) = O=C(O)CNCCc1c[nH]c2ccccc12; NGly(CH2(3-pyridyl)) = O=C(O)CNCc1cccnc1; Gly(N(CH2)3NH2) = NCCCNCC(=O)O; Cysteamide = C(CS[*:3])N[*:1]; NPrGly = CCCNCC(=O)O; Sar = CNCC(=O)O
Some molecules, each annotated with its measured pKd.
Entry type: numeric. Quantity: pKd, the -log10 of concentration in molar units.

NCCCNCC(=O)N(CC(=O)N(CCc1c[nH]c2ccccc12)CC(=O)N(CCc1c[nH]c2ccccc12)CC(=O)NCCS)Cc1cccnc1 [Ligand 16-82-3] (H-[Gly(N(CH2)3NH2)][NGly(CH2(3-pyridyl))][Gly(N(CH2)2(3-indolyl))][Gly(N(CH2)2(3-indolyl))]-Cysteamide) = 5.60

API: the following record is the query input.
Sample CCCN(CC(=O)N(CCc1c[nH]c2ccccc12)CC(=O)NCCS)C(=O)CN(CCc1c[nH]c2ccccc12)C(=O)CN(C)C(=O)CN(CCc1c[nH]c2ccccc12)C(=O)CN(Cc1cccnc1)C(=O)CNCCCN [Ligand 12-73-4] (H-[Gly(N(CH2)3NH2)][NGly(CH2(3-pyridyl))][Gly(N(CH2)2(3-indolyl))][Sar][Gly(N(CH2)2(3-indolyl))][NPrGly][Gly(N(CH2)2(3-indolyl))]-Cysteamide) ; pKd observed: 5.41

* * *

Test system: polyclonal human IgG
Experiment: Adsorption isotherm of peptoid affinity resins against polyclonal human IgG
Assay type: binding
Design: unit not given here
Settings: Table 3; maximum capacity (qmax) of resin from isotherm fit
*1 amine or outer side, *2 acyl side, *3 side chain or, on linkers, in order; H or OH if unused. Where a SMILES comes first, the peptide text is derived from it. [ ]: non-standard residue; d: D form. Gly(N(CH2)2(3-indolyl)) = O=C(O)CNCCc1c[nH]c2ccccc12; Gly(N-(CH2)3-guanidino) = N=C(N)NCCCNCC(=O)O; NGly(CH2(3-pyridyl)) = O=C(O)CNCc1cccnc1; N(CH2CH2COOH)Gly = O=C(O)CCNCC(=O)O; Gly(N(CH2)3NH2) = NCCCNCC(=O)O; Cysteamide = C(CS[*:3])N[*:1]; X1 = CSCCN(CC(=O)[*:2])[*:1]; Nphe = O=C(O)CNCc1ccccc1; NPrGly = CCCNCC(=O)O; Nme = COCCNCC(=O)O; Sar = CNCC(=O)O
Some molecules, each annotated with its measured Qmax.
Just the number, please, no unit after it.

Reference set (5 entries):
CSCCN(CC(=O)N(CCCN)CC(=O)N(CC(=O)N(CCC(=O)O)CC(=O)N(C)CC(=O)NCCS)Cc1cccnc1)C(=O)CN(Cc1ccccc1)C(=O)CNCc1cccnc1 [Ligand 16-64-4] (H-[NGly(CH2(3-pyridyl))][Nphe][X1][Gly(N(CH2)3NH2)][NGly(CH2(3-pyridyl))][N(CH2CH2COOH)Gly][Sar]-Cysteamide) = 33
COCCN(CC(=O)N(CC(=O)NCCS)Cc1cccnc1)C(=O)CN(CCCN)C(=O)CNCCc1c[nH]c2ccccc12 [Ligand 16-81-7] (H-[Gly(N(CH2)2(3-indolyl))][Gly(N(CH2)3NH2)][Nme][NGly(CH2(3-pyridyl))]-Cysteamide) = 39
CCCN(CC(=O)N(CCc1c[nH]c2ccccc12)CC(=O)NCCS)C(=O)CN(CCc1c[nH]c2ccccc12)C(=O)CN(C)C(=O)CN(CCCNC(=N)N)C(=O)CN(CCc1c[nH]c2ccccc12)C(=O)CNCCC(=O)O [Ligand 18-28-7] (H-[N(CH2CH2COOH)Gly][Gly(N(CH2)2(3-indolyl))][Gly(N-(CH2)3-guanidino)][Sar][Gly(N(CH2)2(3-indolyl))][NPrGly][Gly(N(CH2)2(3-indolyl))]-Cysteamide) = 42
CCCN(CC(=O)N(C)CC(=O)N(CCc1c[nH]c2ccccc12)CC(=O)N(CCC)CC(=O)N(CCc1c[nH]c2ccccc12)CC(=O)NCCS)C(=O)CN(CCCNC(=N)N)C(=O)CNCCc1c[nH]c2ccccc12 [Ligand 12-76-3] (H-[Gly(N(CH2)2(3-indolyl))][Gly(N-(CH2)3-guanidino)][NPrGly][Sar][Gly(N(CH2)2(3-indolyl))][NPrGly][Gly(N(CH2)2(3-indolyl))]-Cysteamide) = 87
CCCN(CC(=O)N(CCc1c[nH]c2ccccc12)CC(=O)NCCS)C(=O)CN(CCc1c[nH]c2ccccc12)C(=O)CN(C)C(=O)CN(CCC(=O)O)C(=O)CN(Cc1cccnc1)C(=O)CNCCCN [Ligand 15-91-4] (H-[Gly(N(CH2)3NH2)][NGly(CH2(3-pyridyl))][N(CH2CH2COOH)Gly][Sar][Gly(N(CH2)2(3-indolyl))][NPrGly][Gly(N(CH2)2(3-indolyl))]-Cysteamide) = 32

API: the following record is the query input.
The recorded Qmax with polyclonal human IgG for CCCN(CC(=O)N(CCCN)CC(=O)N(CC(=O)N(CCC(=O)O)CC(=O)N(C)CC(=O)NCCS)Cc1cccnc1)C(=O)CN(CCC(=O)O)C(=O)CNCc1cccnc1 [Ligand 16-75-1] (H-[NGly(CH2(3-pyridyl))][N(CH2CH2COOH)Gly][NPrGly][Gly(N(CH2)3NH2)][NGly(CH2(3-pyridyl))][N(CH2CH2COOH)Gly][Sar]-Cysteamide) was 33

* * *

Some molecules, each annotated with its measured Qmax.
Test system: polyclonal human IgG
Test: Adsorption isotherm of peptoid affinity resins against polyclonal human IgG
Assay type: binding
Parameters: unit not given here
Details: Table 3; maximum capacity (qmax) of resin from isotherm fit
*1 amine or outer side, *2 acyl side, *3 side chain or, on linkers, in order; H or OH if unused. Where a SMILES comes first, the peptide text is derived from it. [ ]: non-standard residue; d: D form. Gly(N(CH2)2(3-indolyl)) = O=C(O)CNCCc1c[nH]c2ccccc12; NGly(CH2(3-pyridyl)) = O=C(O)CNCc1cccnc1; Gly(N(CH2)3NH2) = NCCCNCC(=O)O; Cysteamide = C(CS[*:3])N[*:1]; Nphe = O=C(O)CNCc1ccccc1; NPrGly = CCCNCC(=O)O; Nme = COCCNCC(=O)O; Sar = CNCC(=O)O
Just the number, please, no unit after it.

CCCNCC(=O)N(CC(=O)N(CC(=O)N(C)CC(=O)N(CCc1c[nH]c2ccccc12)CC(=O)N(CCC)CC(=O)N(CCc1c[nH]c2ccccc12)CC(=O)NCCS)Cc1ccccc1)Cc1cccnc1 [Ligand 12-79-4] (H-[NPrGly][NGly(CH2(3-pyridyl))][Nphe][Sar][Gly(N(CH2)2(3-indolyl))][NPrGly][Gly(N(CH2)2(3-indolyl))]-Cysteamide) = 69

API: the following record is the query input.
The recorded Qmax with polyclonal human IgG for COCCN(CC(=O)N(CCCN)CC(=O)N(CCc1c[nH]c2ccccc12)CC(=O)NCCS)C(=O)CNCc1cccnc1 [Ligand 16-81-6] (H-[NGly(CH2(3-pyridyl))][Nme][Gly(N(CH2)3NH2)][Gly(N(CH2)2(3-indolyl))]-Cysteamide) was 45

* * *

Target: polyclonal human IgG
Test: Adsorption isotherm of peptoid affinity resins against polyclonal human IgG
Assay type: binding
Details: Table 2; peptoid ligand conjugated to chromatographic resin, IgG in PBS, hyperbola fit of isotherm; Kd given in molar; read-out: Kd x 10^−6
*1 amine or outer side, *2 acyl side, *3 side chain or, on linkers, in order; H or OH if unused. Where a SMILES comes first, the peptide text is derived from it. [ ]: non-standard residue; d: D form. Gly(N(CH2)2(3-indolyl)) = O=C(O)CNCCc1c[nH]c2ccccc12; N(4-hydroxyphenethyl)Gly = O=C(O)CNCCc1ccc(O)cc1; Gly(N-(CH2)3-guanidino) = N=C(N)NCCCNCC(=O)O; NGly(CH2(3-pyridyl)) = O=C(O)CNCc1cccnc1; N(CH2CH2COOH)Gly = O=C(O)CCNCC(=O)O; Gly(N(CH2)3NH2) = NCCCNCC(=O)O; Cysteamide = C(CS[*:3])N[*:1]; Nphe = O=C(O)CNCc1ccccc1; NPrGly = CCCNCC(=O)O; Nme = COCCNCC(=O)O; Sar = CNCC(=O)O
Reported property: Kd (µM)

NC(=O)NCCCN(CC(=O)N(CCc1c[nH]c2ccccc12)CC(=O)N(CC(=O)NCCS)Cc1cccnc1)C(=O)CNCCc1c[nH]c2ccccc12 [Ligand 16-75-5] = 4.3
COCCN(CC(=O)NCCS)C(=O)CN(CCc1c[nH]c2ccccc12)C(=O)CN(CCc1c[nH]c2ccccc12)C(=O)CNCCCN [Ligand 16-77-3] (H-[Gly(N(CH2)3NH2)][Gly(N(CH2)2(3-indolyl))][Gly(N(CH2)2(3-indolyl))][Nme]-Cysteamide) = 4
CCCN(CC(=O)N(CCc1c[nH]c2ccccc12)CC(=O)NCCS)C(=O)CN(CCc1c[nH]c2ccccc12)C(=O)CN(C)C(=O)CN(Cc1cccnc1)C(=O)CN(CCc1c[nH]c2ccccc12)C(=O)CNCCCNC(=N)N [Ligand 18-28-6] (H-[Gly(N-(CH2)3-guanidino)][Gly(N(CH2)2(3-indolyl))][NGly(CH2(3-pyridyl))][Sar][Gly(N(CH2)2(3-indolyl))][NPrGly][Gly(N(CH2)2(3-indolyl))]-Cysteamide) = 2.6
NC(=O)NCCCN(CC(=O)N(CCc1c[nH]c2ccccc12)CC(=O)NCCS)C(=O)CN(CCc1c[nH]c2ccccc12)C(=O)CNCc1cccnc1 [Ligand 16-77-1] = 3.6
COCCN(CC(=O)N(CC(=O)N(CCCNC(=N)N)CC(=O)N(CC(=O)N(CCC(=O)O)CC(=O)N(C)CC(=O)NCCS)Cc1cccnc1)Cc1ccccc1)C(=O)CNCc1cccnc1 [Ligand 18-28-12] (H-[NGly(CH2(3-pyridyl))][Nme][Nphe][Gly(N-(CH2)3-guanidino)][NGly(CH2(3-pyridyl))][N(CH2CH2COOH)Gly][Sar]-Cysteamide) = 16
CN(CC(=O)NCCS)C(=O)CN(CCC(=O)O)C(=O)CN(Cc1cccnc1)C(=O)CN(CCCNC(=N)N)C(=O)CN(CCCNC(=N)N)C(=O)CN(CCc1ccc(O)cc1)C(=O)CNCCc1ccc(O)cc1 [Ligand 18-28-1] (H-[N(4-hydroxyphenethyl)Gly][N(4-hydroxyphenethyl)Gly][Gly(N-(CH2)3-guanidino)][Gly(N-(CH2)3-guanidino)][NGly(CH2(3-pyridyl))][N(CH2CH2COOH)Gly][Sar]-Cysteamide) = 7.7
CCCN(CC(=O)N(CCc1c[nH]c2ccccc12)CC(=O)NCCS)C(=O)CN(CCc1c[nH]c2ccccc12)C(=O)CN(C)C(=O)CN(CCc1c[nH]c2ccccc12)C(=O)CN(Cc1cccnc1)C(=O)CNCCCNC(=N)N [Ligand 12-76-4] (H-[Gly(N-(CH2)3-guanidino)][NGly(CH2(3-pyridyl))][Gly(N(CH2)2(3-indolyl))][Sar][Gly(N(CH2)2(3-indolyl))][NPrGly][Gly(N(CH2)2(3-indolyl))]-Cysteamide) = 5.7
COCCNCC(=O)N(CCc1c[nH]c2ccccc12)CC(=O)N(CCc1c[nH]c2ccccc12)CC(=O)N(CCCN)CC(=O)NCCS [Ligand 16-77-4] (H-[Nme][Gly(N(CH2)2(3-indolyl))][Gly(N(CH2)2(3-indolyl))][Gly(N(CH2)3NH2)]-Cysteamide) = 4.3
